Values compiled from ChEMBL document CHEMBL5244256.

system: Trypanosoma cruzi; experiment: Trypanocidal activity against Trypanosoma cruzi Y strain measured after 24 hrs; format: functional, organism-based
pIC50: −log10 of the molar value.
measurementLabel: pIC50

[[record]]
smilesstr = "COc1ccccc1/C=C/C=N/NC(N)=S"
valuereported = 6.40


====

tested on: Leishmania infantum; assay: Antileishmanial activity against Leishmania infantum MCAN/ES/89/IPZ229/1/89 promastigotes assessed as reduction in parasite growth incubated for 24 hrs by flow cytometry analysis; format: functional, organism-based; details: MCAN/ES/89/IPZ229/1/89, 24 h
measurementLabel: IC50 (µM)

[[record]]
smilesstr = "C[Se]/C(=N/C(=O)c1cccnc1)NC(=O)c1cccnc1"
valuereported = 3.74


====

assay: Selectivity ratio of IC50 for cytotoxicity against human THP-1 cells to IC50 for Antileishmanial activity against Leishmania infantum MCAN/ES/89/IPZ229/1/89 amastigotes; assay type: toxicity, cell-based; conditions: read-out: Ratio IC50
measurementLabel: selectivity ratio

[[record]]
smilesstr = "C[Se]/C(=N/C(=O)c1cccnc1)NC(=O)c1cccnc1"
valuereported = 4


====

tested on: Trypanosoma cruzi; experiment: Trypanocidal activity against Trypanosoma cruzi Y strain; assay type: functional, organism-based
Recorded IC50 by entry
measurementLabel: IC50 (µM)

[[record]]
compound = "Cc1cccc([Se]C2CC3=C(OC2(C)C)c2ccccc2C(=O)C3=O)c1 (stereo unspecified)"
valuereported = 1680

[[record]]
compound = "CC1(C)OC2=C(CC1[Se]c1cccc(Br)c1)C(=O)C(=O)c1ccccc12 (stereo unspecified)"
valuereported = 477

[[record]]
compound = "CC1(C)OC2=C(CC1[Se]c1cccc(Cl)c1)C(=O)C(=O)c1ccccc12 (stereo unspecified)"
valuereported = 360

[[record]]
compound = "O=C(Cn1ccnc1[N+](=O)[O-])NCc1ccccc1"
valuereported = 104

[[record]]
compound = "CC1(C)OC2=C(CC1[Se]c1ccc(C(F)(F)F)cc1)C(=O)C(=O)c1ccccc12 (stereo unspecified)"
valuereported = 54.9

[[record]]
compound = "COc1cccc([Se]C2CC3=C(OC2(C)C)c2ccccc2C(=O)C3=O)c1 (stereo unspecified)"
valuereported = 208

